- ASSAY_NOTES: chemical genetic growth profiling, strain panel (AID 1159580);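 also: tested at 20 µM; growth read once vehicle control cultures reached saturation at 30 °C; 1 = growth at the plate median or of vehicle wells; lower values mean less growth of the strain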
- CONDITION: S. cerevisiae deletion strains, growth OD, locus YAL013W, strain DEP1, stronger effect = lower value
The whole screen tested about 5,500 compounds, of which about 2,000 (36%) were called active. Inconclusive results (about 18%) are left out. The list shows a part of the results.
READOUT: normalized growth
I'd appreciate a reply containing only the number, no unit.

>>> recorded_measurement("COC(=O)c1ccc(C(=O)OC)nc1")
1
>>> recorded_measurement("Nc1nc(N)c2nc(CNc3ccc(C(=O)NC(CCC(=O)O)C(=O)O)cc3)cnc2n1 (centres undefined)")
1.03
>>> recorded_measurement("C[C@](N)(Cc1ccc(O)c(O)c1)C(=O)O")
0.962
>>> recorded_measurement("O=C(O)CC[C@@H](NC(=O)c1ccccc1C(=O)O)C(=O)O")
1.02

Q: Would you kindly share the measured normalized growth for CC(N)(Cc1ccc(O)c(O)c1)C(=O)O (centres undefined) ?
Ans: 0.956

Q: Would you kindly share the measured normalized growth for `CCCSP(=O)(OCC)SCCC` ?
Ans: 1.01

Q: Would you kindly share the measured normalized growth for `CCNS(=O)(=O)c1cc(Cl)sc1Cl` ?
Ans: 0.992

Q: Would you kindly share the measured normalized growth for `S=c1[nH]c2ccccc2s1` ?
Ans: 1

Q: Would you kindly share the measured normalized growth for `CCOC(N)=O` ?
Ans: 0.999

Q: Would you kindly share the measured normalized growth for CC(N)(Cc1ccc(O)cc1)C(=O)O (centres undefined) ?
Ans: 1.03

Q: Would you kindly share the measured normalized growth for `CSc1nc2ccc(NC(=O)c3c(-c4ccccc4)noc3C)cc2s1` ?
Ans: 0.971

Q: Would you kindly share the measured normalized growth for `NC(=O)CCSCCC(N)=O` ?
Ans: 0.992

Q: Would you kindly share the measured normalized growth for `CCOC(=O)CC(=O)Nc1scc(C)c1C(=O)OCC` ?
Ans: 0.988

Q: Would you kindly share the measured normalized growth for `COP(=S)(OC)Oc1ccc(SC)c(C)c1` ?
Ans: 1

====

normalized growth reference
- ASSAY_NOTES: chemical genetic growth profiling, strain panel (AID 1159580)
- CONDITION: S. cerevisiae deletion strains, growth OD, locus YGR135W, strain pre9, stronger effect = lower value
The campaign covered roughly 5,500 compounds. About 2,000 (36%) were called active. Not shown: some 18% with an inconclusive outcome. The list shows a part of the results.
I'd appreciate a reply containing only the number, no unit.

>>> recorded_measurement("O=c1ccn([C@@H]2O[C@H](COP(=O)(O)OP(=O)(O)OP(=O)(O)O)[C@@H](O)[C@H]2O)c(=O)[nH]1")
0.946
>>> recorded_measurement("COc1c(C(=O)O)ccc2c1CCC(C)(C)O2")
0.994
>>> recorded_measurement("CC1(C)C2CC(=O)O[C@@]3(C)C4=CC(=O)O[C@@H](c5ccoc5)[C@]4(C)CCC3[C@@]2(C)C=C[C@H]1O (stereo not given in full)")
0.969
>>> recorded_measurement("CO[C@@H]1[C@@H](O[C@@H]2O[C@H](C)[C@@H](O[C@H]3C[C@@](C)(O)[C@H](O)[C@H](C)O3)[C@H](N(C)C)[C@H]2O)[C@@H](CC=O)C[C@@H](C)[C@@H](O[C@H]2CC[C@H](N(C)C)[C@@H](C)O2)/C=C/C=C/C[C@H](C)OC(=O)C[C@H]1O")
0.955

Q: Would you kindly share the measured normalized growth for COc1cc(C)c2c(c1C=O)Oc1c(c(C)c(O)c3c1C(O)OC3=O)OC2=O (stereo not given) ?
Ans: 1.06

====

- ASSAY_NOTES: chemical genetic growth profiling, strain panel (AID 1159580)
- CONDITION: S. cerevisiae deletion strains, growth OD, locus YML120C, strain ndi1, stronger effect = lower value
Out of some 5,500 compounds screened, about 2,000 (36%) were called active. Another 18% or so got no clear call; they are omitted. Some of the results follow.
READOUT: normalized growth
I'd appreciate a reply containing only the number, no unit.

Example entries and their recorded answers appear below.
>>> recorded_measurement("CCN(CC)CCOC(=O)C(Cc1cccc2ccccc12)CC1CCCO1 (stereo not given)")
1
>>> recorded_measurement("COc1cc2c(cc1O)CC1c3c(cc(O)c(OC)c3-2)CCN1C (stereo not given)")
1.01

Q: Would you kindly share the measured normalized growth for `O=C1N=C(O)CN1/N=C\c1ccc(-c2ccc([N+](=O)[O-])cc2)o1` ?
Ans: 0.988

Q: Would you kindly share the measured normalized growth for CC[C@@]1(C2O[C@@H](C3O[C@@](O)(CC)[C@H](C)C[C@@H]3C)C[C@@H]2C)CC[C@H]([C@]2(C)CCC3(C[C@H](O)[C@@H](C)[C@@H]([C@H](C)[C@@H](OC)[C@H](C)C(=O)O)O3)O2)O1 (stereo not given in full) ?
Ans: 1.01

Q: Would you kindly share the measured normalized growth for CC1(C)C2CC(=O)O[C@@]3(C)C4=CC(=O)O[C@@H](c5ccoc5)[C@]4(C)CCC3[C@@]2(C)C=C[C@H]1O (stereo not given in full) ?
Ans: 0.959

Q: Would you kindly share the measured normalized growth for CC(Cc1ccc(O)c(O)c1)(NN)C(=O)O (stereo not given) ?
Ans: 0.99

Q: Would you kindly share the measured normalized growth for `CC12CCC(CC1)C(C)(C)O2` ?
Ans: 0.988

Q: Would you kindly share the measured normalized growth for Nc1c(Br)cc(Br)cc1CNC1CCC(O)CC1 (stereo not given) ?
Ans: 1.05

Q: Would you kindly share the measured normalized growth for `COc1ccc2c(c1O)-c1c(OC)c(OC)cc3c1[C@H](C2)N(C)CC3` ?
Ans: 0.966

Q: Would you kindly share the measured normalized growth for `O=C1CN(/N=C\c2ccc([N+](=O)[O-])o2)C(=O)N1` ?
Ans: 0.982

Q: Would you kindly share the measured normalized growth for `C[C@](N)(Cc1ccc(O)cc1)C(=O)O` ?
Ans: 1.03

====

- ASSAY_NOTES: chemical genetic growth profiling, strain panel (AID 1159580);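 also: tested at 20 µM; growth read once vehicle control cultures reached saturation at 30 °C; 1 = growth at the plate median or of vehicle wells; lower values mean less growth of the strain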
- CONDITION: S. cerevisiae deletion strains, growth OD, locus YKL009W, strain mrt4
Screen size: about 5,500 compounds; about 2,000 (36%) were called active. Inconclusive results (about 18%) are left out. Rule as the data show it: active = normalized growth mostly below about 0.91 (no sharp cut-off); inconclusive = no clear call, values can overlap the other calls; inactive = mostly above about 0.92. The list shows a part of the results.
I would appreciate it if you answered using one of these outcomes: active, inactive

>>> label("COc1cc(C(=O)O)c(O)c2c1OCO2")
"inactive"
>>> label("COc1ccc(/C=C/C(=O)O)cc1OC")
"inactive"
>>> label("CCOC(=O)CCCCCCCCCCCCC1C=CCC1 (centres undefined)")
"active"
>>> label("C=CC1=C(C)/C(=C/c2[nH]c(Cc3[nH]c(/C=C4\\NC(=O)C(C)=C4C=C)c(C)c3CCC(=O)O)c(CCC(=O)O)c2C)NC1=O")
"active"
>>> label("CCOC(N)=O")
"inactive"

Now look at this entry.
Q: What outcome does the record of this test show for `CC(=O)OC/C=C(C)/C=C/C=C(C)/C=C/C1=C(C)CCCC1(C)C` ?
Ans: inactive

====

normalized growth reference
- ASSAY_NOTES: chemical genetic growth profiling, strain panel (AID 1159580);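 also: tested at 20 µM; growth read once vehicle control cultures reached saturation at 30 °C; 1 = growth at the plate median or of vehicle wells; lower values mean less growth of the strain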
- CONDITION: S. cerevisiae deletion strains, growth OD, locus YGL086W, strain mad1, stronger effect = lower value
About 2,000 (36%) of roughly 5,500 compounds were called active. Roughly 18% stayed inconclusive and do not appear here. The list shows a part of the results.
I'd appreciate a reply containing only the number, no unit.

Example entries and their recorded answers appear below.
>>> recorded_measurement("COP(=S)(OC)Oc1ccc(SC)c(C)c1")
0.991
>>> recorded_measurement("CC(Cc1ccc(O)c(O)c1)(NN)C(=O)O (configuration not stated)")
1.02
>>> recorded_measurement("CS(=O)(=O)OCCCCOS(C)(=O)=O")
0.954
>>> recorded_measurement("COS(C)(=O)=O")
1.02
>>> recorded_measurement("COc1cc(/C=C/C(=O)O)ccc1O")
0.952
>>> recorded_measurement("C#C[C@]1(O)CCC2C3CCc4cc(O)ccc4C3CC[C@@]21C (some centres not stated)")
0.951

Q: Would you kindly share the measured normalized growth for CC1=CC(=O)CC(C)(C)C1(O)/C=C/C(C)=C\C(=O)O (configuration not stated) ?
Ans: 1

====

- ASSAY_NOTES: chemical genetic growth profiling, strain panel (AID 1159580);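 also: tested at 20 µM; growth read once vehicle control cultures reached saturation at 30 °C; 1 = growth at the plate median or of vehicle wells; lower values mean less growth of the strain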
- CONDITION: S. cerevisiae deletion strains, growth OD, locus YOL147C, strain pex11
Hit rate of the full screen: of about 5,500 compounds, about 2,000 (36%) were called active. Not shown: some 18% with an inconclusive outcome. Cut-off read from the data, not from the text of the source: active = normalized growth mostly below about 0.91 (no sharp cut-off); inconclusive = no clear call, values can overlap the other calls; inactive = mostly above about 0.92. The list shows a part of the results.
I would appreciate it if you answered using one of these outcomes: active, inactive

Solved entries (count: 10):
>>> label("CN(C)CCCO[C@H]1[C@@H](C(O)CO)OC2OC(C)(C)O[C@@H]21 (stereo partly drawn)")
"inactive"
>>> label("CC1=C(/C=C/C(C)=C/C=C/C(C)=C\\C(=O)O)C(C)(C)CCC1")
"inactive"
>>> label("Nc1nccs1")
"inactive"
>>> label("C=CCN1CC[C@]23c4c5ccc(O)c4OC2C(=O)CC[C@@]3(O)[C@H]1C5 (stereo partly drawn)")
"inactive"
>>> label("COc1cc(C(=O)O)cc(OC)c1O")
"inactive"
>>> label("CC1(C)CC2C1CCC1(C)OC1CCC2(C)O (stereo not drawn)")
"inactive"
>>> label("CC[C@@]1(C2O[C@@H](C3O[C@@](O)(CC)[C@H](C)C[C@@H]3C)C[C@@H]2C)CC[C@H]([C@]2(C)CCC3(C[C@H](O)[C@@H](C)[C@@H]([C@H](C)[C@@H](OC)[C@H](C)C(=O)O)O3)O2)O1 (stereo partly drawn)")
"inactive"
>>> label("NCCCCN=C(N)N")
"inactive"
>>> label("O=C(O)c1cc(=O)c2c(OCC(O)COc3cccc4oc(C(=O)O)cc(=O)c34)cccc2o1")
"inactive"
>>> label("CC(C)C1=CC2=CCC3[C@](C)(CCC[C@]3(C)C(=O)O)C2CC1 (stereo partly drawn)")
"inactive"

Q: What outcome does the record of this test show for `C[C@](N)(Cc1ccc(O)c(O)c1)C(=O)O` ?
Ans: inactive

Q: What outcome does the record of this test show for `O=C(O)c1cc(O)c(O)c(O)c1` ?
Ans: inactive

Q: What outcome does the record of this test show for `CN(Cc1cc(Br)cc(Br)c1N)C1CCCCC1` ?
Ans: inactive

Q: What outcome does the record of this test show for CCCNC(C)C(=O)Nc1ccccc1C (stereo not drawn) ?
Ans: inactive

Q: What outcome does the record of this test show for `CC1=C(/C=C/C(C)=C/C=C/C(C)=C/C(=O)O)C(C)(C)CCC1` ?
Ans: inactive

Q: What outcome does the record of this test show for `CC12CCC(CC1)C(C)(C)O2` ?
Ans: inactive
